Assay: human astrocyte viability loss, single and combined drugs, cytotoxicity control for chromothriptic childhood tumor combination screen, cell-based, BGB or cisplatin IC20 combos (AID 1671460);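 also: cells exposed to compounds for 96 hours before viability readout; 0% = vehicle and 100% = killing control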
Condition Set: Human astrocytes, drug combinations, at 0.5 µM, hits give high values
Could you please report measured inhibition for the items listed next?
Answers are plain numbers, in %.

Example entries and their recorded answers appear below.
{"Compound": "O=C(O)CCCc1ccc(N(CCCl)CCCl)cc1", "Readout Kind": "inhibition", "Endpoint Unit": "%", "Endpoint Result": -13.8}
{"Compound": "O=C1CCC[C@@H]2[C@H]3CCCN4CCC[C@@H](CN12)[C@@H]34", "Readout Kind": "inhibition", "Endpoint Unit": "%", "Endpoint Result": 2.72}
{"Compound": "CCC1(c2ccccc2)C(=O)NC(=O)NC1=O", "Readout Kind": "inhibition", "Endpoint Unit": "%", "Endpoint Result": 10.1}
{"Compound": "CC1(C)C(C(=O)Nc2ccc(S(=O)(=O)c3ccc(NC(=O)C4C(C)(C)C4(C)C)cc3)cc2)C1(C)C", "Readout Kind": "inhibition", "Endpoint Unit": "%", "Endpoint Result": 4.8}
{"Compound": "Cc1c2ccncc2c(C)c2c1[nH]c1ccccc12", "Readout Kind": "inhibition", "Endpoint Unit": "%", "Endpoint Result": 13.8}
{"Compound": "COc1cc(C2c3cc4c(cc3C(O)C3COC(=O)C23)OCO4)cc(OC)c1OC (centres undefined)", "Readout Kind": "inhibition", "Endpoint Unit": "%", "Endpoint Result": 85.4}

Dear reader, for each entry below, please note its inhibition.
1. Cn1c(COP(=O)(NCCBr)NCCBr)cnc1[N+](=O)[O-]
2. O=P(O)(NCCCl)NCCCl
3. CN(C)NC(=O)CCC(=O)O

Reply |
1: -2.6; 2: -6.45; 3: -16.7
